The reported numbers originate from patent US20250170266A1.

Test system: Mouse splenocytes
Test: Mouse Splenocyte Assay, cytokine release (HTRF)
Type: cell-based
Details: Splenocyte, 24 hours, mIL6 in supernatant, read-out: Splenocyte IL6 EC50
pEC50: −log10 of the molar value.
readoutName: pEC50

CCCCOc1nc(N)c2nc(O)n(Cc3ccc(CN4CCNCC4)cc3OC)c2n1
6.66
CCNCc1ccc(Cn2c(O)nc3c(N)nc(OCC)nc32)c(OC)c1
6.13
CCCCOc1nc(N)c2nc(O)n(Cc3ccc(N4CCC5(CCNCC5)CC4)nc3)c2n1
7.45
CCCCOc1nc(N)c2nc(O)n(Cc3ccc(N4CCC(N)CC4)cc3OC)c2n1
7.29
CCOc1nc(N)c2nc(O)n(Cc3ccc(CN4CCC(C5CCNCC5)CC4)cc3OC)c2n1
6.73

1. CCOc1nc(N)c2nc(O)n(Cc3ccc(CNCc4ccc(CNCc5ccccc5)cc4)cc3OC)c2n1
2. CCOc1nc(N)c2nc(O)n(Cc3ccc(CN4CCC(CN)CC4)cc3OC)c2n1
3. CCCCOc1nc(N)c2nc(O)n(Cc3ccc(CNCCCCN)cc3OC)c2n1
4. CCCCCNc1nc(N)c2nc(O)n(Cc3ccc(CNCCN4CCNCC4)cc3)c2n1
Rank the 4 compounds: largest pEC50 first, smallest last. Hello, could you send the labels back in the order asked? Thank you.
3, 1, 2, 4

P. CCCCCNc1nc(N)c2nc(O)n(Cc3ccc(CN)cc3)c2n1
Q. CCOc1nc(N)c2nc(O)n(Cc3ccc(CNCc4ccc(CN5CCC(NC(=O)OC(C)(C)C)CC5)cc4)cc3OC)c2n1
Which record would sort first by descending pEC50, P or Q ? Return value: the label identifying the chosen record.
Q
(Q: 8.02, P: 6.63)

1. CCCCOc1nc(N)c2nc(O)n(Cc3ccc(CN4CCC5(CCNCC5)CC4)cc3OC)c2n1
2. CCCCOc1nc(N)c2nc(O)n(Cc3ccc(CNC4CCC4)cc3OC)c2n1
Hey, between 1 and 2 which has a smaller measured pEC50? Return value: the label identifying the chosen record.
1
(1: 8.03, 2: 9.52)

A. CCCCCNc1nc(N)c2nc(O)n(Cc3ccc(CNC4CCNCC4)cc3)c2n1
B. CCCCOc1nc(N)c2nc(O)n(Cc3ccc(CNCC(C)(C)O)cc3OC)c2n1
Which record would sort first by descending pEC50, A or B ? Return value: the label identifying the chosen record.
B
(B: 8.70, A: 5.86)

a. CCCCCNc1nc(N)c2nc(O)n(Cc3ccc(CN4CCNCC4)cc3)c2n1
b. CCCCOc1nc(N)c2nc(O)n(Cc3ccc(CN)cc3OC)c2n1
Hey, between a and b which has a smaller measured pEC50? Return value: the label identifying the chosen record.
a

P. CCOc1nc(N)c2nc(O)n(Cc3ccc(CNCCCCN)cc3OC)c2n1
Q. CCOc1nc(N)c2nc(O)n(Cc3ccc(CNCC(C)(C)O)cc3OC)c2n1
R. CCOc1nc(N)c2nc(O)n(Cc3ccc(CN[C@H](CO)Cc4ccccc4)cc3OC)c2n1
# ascending order, key=pEC50 Hello, could you send the labels back in the order asked? Thank you.
P, R, Q

P. CCOc1nc(N)c2nc(O)n(Cc3ccc(CN[C@H](CO)[C@@H](C)CC)cc3OC)c2n1
Q. CCCCOc1nc(N)c2nc(O)n(Cc3ccc(N4CCNCC4)cc3OC)c2n1
Hey, between P and Q which has a smaller measured pEC50? Return value: the label identifying the chosen record.
P
(P: 7.18, Q: 7.63)

1. CCOc1nc(N)c2nc(O)n(Cc3ccc(CN4CCC(CCN)CC4)cc3OC)c2n1
2. CCOc1nc(N)c2nc(O)n(Cc3ccc(CNCc4ccc(CN)cc4)cc3OC)c2n1
3. CCCCOc1nc(N)c2nc(O)n(Cc3ccc(CNC)cc3OC)c2n1
Rank the 3 compounds: largest pEC50 first, smallest last. Hello, could you send the labels back in the order asked? Thank you.
3, 2, 1
(3: 8.54, 2: 7.58, 1: 6.75)
